method description: Cytotoxicity against human HCT116/VM46 cells assessed as reduction in cell viability after 72 hrs by phosphatase assay
Format: cell-based
reported conditions: HCT-116/VM46, 72 h
Can you tell me pIC50 for the items I'm about to list?
One number for each entry, as −log10 of the molar value.

smiles_code=CC[C@]1(NC(=O)C(C)C)C[C@H]2CN(CCc3c([nH]c4ccccc34)[C@@](C(=O)OC)(c3cc4c(cc3OC)N(C)[C@H]3[C@@](O)(C(=O)OC)[C@H](OC(C)=O)[C@]5(CC)C=CCN6CC[C@]43[C@@H]65)C2)C1 measured_metric=pIC50 reported_value=5.85

Proceed to the following item.
Requested field: pIC50. Item: CC[C@]1(NC(=O)c2ccc3cnccc3c2)C[C@H]2CN(CCc3c([nH]c4ccccc34)[C@@](C(=O)OC)(c3cc4c(cc3OC)N(C)[C@H]3[C@@](O)(C(=O)OC)[C@H](OC(C)=O)[C@]5(CC)C=CCN6CC[C@]43[C@@H]65)C2)C1
8.14

----------
Can you tell me pIC50 for the items I'm about to list?
method description: Cytotoxicity against human HCT116/VM46 cells assessed as reduction in cell viability after 72 hrs by phosphatase assay
Assay type: cell-based
reported conditions: HCT-116/VM46, 72 h
Numbers only, as −log10 of the molar value.

Give pIC50 for all molecules that follow.
1. CC[C@]1(NC(=O)c2ccc(NC(=O)OC(C)(C)C)cc2)C[C@H]2CN(CCc3c([nH]c4ccccc34)[C@@](C(=O)OC)(c3cc4c(cc3OC)N(C)[C@H]3[C@@](O)(C(=O)OC)[C@H](OC(C)=O)[C@]5(CC)C=CCN6CC[C@]43[C@@H]65)C2)C1
2. CC[C@]1(NC(=O)c2ccc(OC)c(OC)c2)C[C@H]2CN(CCc3c([nH]c4ccc(F)cc34)[C@@](C(=O)OC)(c3cc4c(cc3OC)N(C)[C@H]3[C@@](O)(C(=O)OC)[C@H](OC(C)=O)[C@]5(CC)C=CCN6CC[C@]43[C@@H]65)C2)C1
3. CC[C@]1(NC(=O)c2ccon2)C[C@H]2CN(CCc3c([nH]c4ccccc34)[C@@](C(=O)OC)(c3cc4c(cc3OC)N(C)[C@H]3[C@@](O)(C(=O)OC)[C@H](OC(C)=O)[C@]5(CC)C=CCN6CC[C@]43[C@@H]65)C2)C1
4. CC[C@]1(NC(=O)c2ccc(OC(F)(F)F)c(OC)c2)C[C@H]2CN(CCc3c([nH]c4ccccc34)[C@@](C(=O)OC)(c3cc4c(cc3OC)N(C)[C@H]3[C@@](O)(C(=O)OC)[C@H](OC(C)=O)[C@]5(CC)C=CCN6CC[C@]43[C@@H]65)C2)C1

1. 7.52
2. 9.05
3. 7.05
4. 8.16

----------
system: UniProt:P08183
Sequence (P08183 whole entry): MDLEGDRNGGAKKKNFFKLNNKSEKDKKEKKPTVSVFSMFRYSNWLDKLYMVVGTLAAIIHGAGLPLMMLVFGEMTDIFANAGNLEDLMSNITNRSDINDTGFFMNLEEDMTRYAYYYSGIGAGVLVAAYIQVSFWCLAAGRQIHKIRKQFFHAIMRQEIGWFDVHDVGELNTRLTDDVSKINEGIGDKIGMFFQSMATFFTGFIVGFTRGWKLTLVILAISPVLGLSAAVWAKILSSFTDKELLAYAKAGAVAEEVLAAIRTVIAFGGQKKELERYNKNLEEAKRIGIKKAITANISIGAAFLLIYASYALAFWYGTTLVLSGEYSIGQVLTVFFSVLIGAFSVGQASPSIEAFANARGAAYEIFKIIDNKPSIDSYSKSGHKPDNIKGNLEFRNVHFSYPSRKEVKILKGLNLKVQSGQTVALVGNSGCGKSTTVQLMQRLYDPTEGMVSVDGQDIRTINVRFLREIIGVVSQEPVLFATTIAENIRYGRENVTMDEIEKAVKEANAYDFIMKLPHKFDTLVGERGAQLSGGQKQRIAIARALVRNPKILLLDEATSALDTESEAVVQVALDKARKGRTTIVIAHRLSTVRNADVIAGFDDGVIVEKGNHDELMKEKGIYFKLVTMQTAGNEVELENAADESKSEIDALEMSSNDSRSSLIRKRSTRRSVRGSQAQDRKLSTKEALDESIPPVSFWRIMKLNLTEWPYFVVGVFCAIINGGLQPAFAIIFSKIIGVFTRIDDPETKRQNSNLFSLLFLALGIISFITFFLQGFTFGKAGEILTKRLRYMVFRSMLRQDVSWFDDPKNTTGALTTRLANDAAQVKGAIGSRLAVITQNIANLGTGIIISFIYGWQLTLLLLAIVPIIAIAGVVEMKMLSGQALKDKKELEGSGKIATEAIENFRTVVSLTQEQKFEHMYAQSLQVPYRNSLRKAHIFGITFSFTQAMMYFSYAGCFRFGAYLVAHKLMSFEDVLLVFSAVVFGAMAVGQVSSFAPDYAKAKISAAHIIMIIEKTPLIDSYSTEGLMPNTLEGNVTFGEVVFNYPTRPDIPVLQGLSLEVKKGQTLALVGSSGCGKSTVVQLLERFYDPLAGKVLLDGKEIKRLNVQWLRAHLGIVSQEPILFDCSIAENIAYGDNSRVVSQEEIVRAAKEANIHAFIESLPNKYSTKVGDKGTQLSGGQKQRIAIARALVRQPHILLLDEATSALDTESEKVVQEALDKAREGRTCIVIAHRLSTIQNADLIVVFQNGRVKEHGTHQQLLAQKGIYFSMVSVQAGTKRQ
method description: Inhibition of MDR1 (unknown origin) ATPase activity expressed in sf9 cell membranes assessed as residual activity at 20 uM using ATP as substrate preincubated for 5 mins followed by substrate addition measured after 20 mins by spectrophotometric method relative to control
reported conditions: Sf9 cell membranes expressing MDR1, probe ATP, read-out: Activity
measured metric: activity at 20 min, 20 µM
Please answer using the number first and the unit second.

smiles_code=CC[C@]1(O)C[C@@H]2CN(CCc3c([nH]c4ccccc34)[C@@](C(=O)OC)(c3cc4c(cc3OC)N(C)[C@H]3[C@@](O)(C(=O)OC)[C@H](OC(C)=O)[C@]5(CC)C=CCN6CC[C@]43[C@@H]65)C2)C1 reported_value=87%

Requested field: activity at 20 min, 20 µM. Item: CC[C@]1(NC(=O)c2ccc3c(c2)CCCC3)C[C@H]2CN(CCc3c([nH]c4ccccc34)[C@@](C(=O)OC)(c3cc4c(cc3OC)N(C)[C@H]3[C@@](O)(C(=O)OC)[C@H](OC(C)=O)[C@]5(CC)C=CCN6CC[C@]43[C@@H]65)C2)C1
0%
